Would you mind telling me the reported MIC of each entry?
- System: Haemophilus influenzae
- assay-explanation: In vitro antimicrobial activity against Haemophilus influenzae.
- Assay type: functional
# unit: µg/mL | format: bare number

Please indicate recorded MIC of CC[C@H]1OC(=O)C[C@@H](O)[C@H](C)[C@@H](O[C@@H]2O[C@H](C)[C@@H](O)[C@H](N(C)C)[C@H]2O)[C@@H](CCOc2ccccc2)C[C@@H](C)C(=O)/C=C/C(C)=C/[C@@H]1CO[C@@H]1O[C@H](C)[C@@H](O)[C@@H](O)[C@H]1OC measured with Haemophilus influenzae.
32

Please indicate recorded MIC of CC[C@H]1OC(=O)C[C@@H](O)[C@H](C)[C@@H](O[C@@H]2O[C@H](C)[C@@H](O)[C@H](N(C)C)[C@H]2O)[C@@H](CCO)C[C@@H](C)C(=O)/C=C/C(C)=C/[C@@H]1CO[C@@H]1O[C@H](C)[C@@H](O)[C@@H](OC)[C@H]1OC measured with Haemophilus influenzae.
32

====

Would you mind telling me the reported MIC of each entry?
- Test system: Haemophilus influenzae
- assay-explanation: In vitro antimicrobial activity against Haemophilus influenzae.
- Type: functional

// fetch MIC given entry CC[C@H]1OC(=O)C[C@@H](O)[C@H](C)[C@@H](O[C@@H]2O[C@H](C)[C@@H](O[C@H]3C[C@@](C)(O)[C@@H](O)[C@H](C)O3)[C@H](N(C)C)[C@H]2O)[C@@H](CCN=[N+]=[N-])C[C@@H](C)C(=O)/C=C/C(C)=C/[C@@H]1CO[C@@H]1O[C@H](C)[C@@H](O)[C@@H](OC)[C@H]1OC
> 128 µg/mL

// fetch MIC given entry CC[C@H]1OC(=O)C[C@@H](O)[C@H](C)[C@@H](O[C@@H]2O[C@H](C)[C@@H](O[C@H]3C[C@@](C)(O)[C@@H](O)[C@H](C)O3)[C@H](N(C)C)[C@H]2O)[C@@H](CCOc2ccccc2)C[C@@H](C)C(=O)/C=C/C(C)=C/[C@@H]1CO[C@@H]1O[C@H](C)[C@@H](O)[C@@H](O)[C@H]1OC
> 128 µg/mL

// fetch MIC given entry CC[C@H]1C[C@@H](C)C(=O)/C=C/C(C)=C/[C@H](C)[C@@H](CC)OC(=O)C[C@@H](O)[C@H](C)[C@H]1O[C@@H]1O[C@H](C)[C@@H](O[C@H]2C[C@@](C)(O)[C@@H](O)[C@H](C)O2)[C@H](N(C)C)[C@H]1O
> 128 µg/mL

// fetch MIC given entry CC[C@H]1OC(=O)C[C@@H](O)[C@H](C)[C@@H](O[C@@H]2O[C@H](C)[C@@H](O[C@H]3C[C@@](C)(O)[C@@H](O)[C@H](C)O3)[C@H](N(C)C)[C@H]2O)[C@@H](CC=O)C[C@@H](C)C(=O)/C=C/C(C)=C/[C@@H]1CO
4 µg/mL

====

- Tested on: Streptococcus pyogenes
- assay-explanation: In vitro antimicrobial activity against Streptococcus pyogenes C203
- Assay type: functional
Would you mind telling me the reported log10 MIC of each entry?
Could you please treat all values as log10 of MIC in µg/mL?

// fetch log10 MIC given entry CC[C@H]1OC(=O)C[C@@H](O)[C@H](C)[C@@H](O[C@@H]2O[C@H](C)[C@@H](O)[C@H](N(C)C)[C@H]2O)[C@@H](CCO)C[C@@H](C)C(=O)/C=C/C(C)=C/[C@@H]1C
1.20

// fetch log10 MIC given entry CC[C@H]1OC(=O)C[C@@H](O)[C@H](C)[C@@H](O[C@@H]2O[C@H](C)[C@@H](O[C@H]3C[C@@](C)(O)[C@@H](O)[C@H](C)O3)[C@H](N(C)C)[C@H]2O)[C@@H](CC=O)C[C@@H](C)C(=O)/C=C/C(C)=C/[C@@H]1CO
-0.60

// fetch log10 MIC given entry CC[C@H]1OC(=O)C[C@@H](O)[C@H](C)[C@@H](O[C@@H]2O[C@H](C)[C@@H](O)[C@H](N(C)C)[C@H]2O)[C@@H](CCN)C[C@@H](C)C(=O)/C=C/C(C)=C/[C@@H]1CO[C@@H]1O[C@H](C)[C@@H](O)[C@@H](OC)[C@H]1OC
1.51

// fetch log10 MIC given entry CC[C@H]1C[C@@H](C)C(=O)/C=C/C(C)=C/[C@H](CO)[C@@H](CC)OC(=O)C[C@@H](O)[C@H](C)[C@H]1O[C@@H]1O[C@H](C)[C@@H](O)[C@H](N(C)C)[C@H]1O
0.90

// fetch log10 MIC given entry CC[C@H]1OC(=O)C[C@@H](O)[C@H](C)[C@@H](O[C@@H]2O[C@H](C)[C@@H](O)[C@H](N(C)C)[C@H]2O)[C@@H](CCNCCc2ccccc2)C[C@@H](C)C(=O)/C=C/C(C)=C/[C@@H]1CO
0.30

====

- System: Bacteroides fragilis
- assay-explanation: In vitro antimicrobial activity against anaerobic bacteria bacteroides fragilis 1936B,
- Type: functional
observation-type: MIC (µg/mL)
# unit: µg/mL | format: bare number

Please indicate recorded MIC of CC[C@H]1OC(=O)C[C@@H](O)[C@H](C)[C@@H](O[C@@H]2O[C@H](C)[C@@H](O[C@H]3C[C@@](C)(O)[C@@H](O)[C@H](C)O3)[C@H](N(C)C)[C@H]2O)[C@@H](CC=O)C[C@@H](C)C(=O)/C=C/C(C)=C/[C@@H]1CO[C@@H]1O[C@H](C)[C@@H](O)[C@@H](OC)[C@H]1OC [TYLOSIN] measured with Bacteroides fragilis.
1

Please indicate recorded MIC of CC[C@H]1OC(=O)C[C@@H](O)[C@H](C)[C@@H](O[C@@H]2O[C@H](C)[C@@H](O)[C@H](N(C)C)[C@H]2O)[C@@H](CC=O)C[C@@H](C)C(=O)/C=C/C(C)=C/[C@@H]1CO measured with Bacteroides fragilis.
32

Please indicate recorded MIC of CC[C@H]1OC(=O)C[C@@H](O)[C@H](C)[C@@H](O[C@@H]2O[C@H](C)[C@@H](O)[C@H](N(C)C)[C@H]2O)[C@@H](CCOc2ccc(-c3ccccc3)cc2)C[C@@H](C)C(=O)/C=C/C(C)=C/[C@@H]1CO[C@@H]1O[C@H](C)[C@@H](O)[C@@H](OC)[C@H]1OC measured with Bacteroides fragilis.
4

====

- Tested on: Streptococcus pyogenes
- assay-explanation: In vitro antimicrobial activity against Streptococcus pyogenes C203
- Assay type: functional
observation-type: MIC (µg/mL)
# unit: µg/mL | format: bare number

// fetch MIC given entry CCOC(C[C@H]1C[C@@H](C)C(=O)/C=C/C(C)=C/[C@H](CO[C@@H]2O[C@H](C)[C@@H](O)[C@@H](OC)[C@H]2OC)[C@@H](CC)OC(=O)C[C@@H](O)[C@H](C)[C@H]1O[C@@H]1O[C@H](C)[C@@H](O)[C@H](N(C)C)[C@H]1O)OCC
0.5

// fetch MIC given entry CC[C@H]1OC(=O)C[C@@H](O)[C@H](C)[C@@H](O[C@@H]2O[C@H](C)[C@@H](O[C@H]3C[C@@](C)(O)[C@@H](O)[C@H](C)O3)[C@H](N(C)C)[C@H]2O)[C@@H](CCOc2cc(Cl)cc(Cl)c2)C[C@@H](C)C(=O)/C=C/C(C)=C/[C@@H]1CO[C@@H]1O[C@H](C)[C@@H](O)[C@@H](OC)[C@H]1OC
1

====

- Tested on: Staphylococcus epidermidis
- assay-explanation: In vitro antimicrobial activity against Staphylococcus epidermidis EPI1
- Type: functional
Would you mind telling me the reported MIC of each entry?
# unit: µg/mL | format: bare number

// fetch MIC given entry CC[C@H]1C[C@@H](C)C(=O)/C=C/C(C)=C/[C@H](CO)[C@@H](CC)OC(=O)C[C@@H](O)[C@H](C)[C@H]1O[C@@H]1O[C@H](C)[C@@H](O[C@H]2C[C@@](C)(O)[C@@H](O)[C@H](C)O2)[C@H](N(C)C)[C@H]1O
128

// fetch MIC given entry CC[C@H]1OC(=O)C[C@@H](O)[C@H](C)[C@@H](O[C@@H]2O[C@H](C)[C@@H](O)[C@H](N(C)C)[C@H]2O)[C@@H](CCNCCc2ccccc2)C[C@@H](C)C(=O)/C=C/C(C)=C/[C@@H]1CO[C@@H]1O[C@H](C)[C@@H](O)[C@@H](OC)[C@H]1OC
0.5

// fetch MIC given entry CC[C@H]1OC(=O)C[C@@H](O)[C@H](C)[C@@H](O[C@@H]2O[C@H](C)[C@@H](O)[C@H](N(C)C)[C@H]2O)[C@@H](CCN)C[C@@H](C)C(=O)/C=C/C(C)=C/[C@@H]1CO[C@@H]1O[C@H](C)[C@@H](O)[C@@H](OC)[C@H]1OC
8

// fetch MIC given entry CC[C@H]1OC(=O)C[C@@H](O)[C@H](C)[C@@H](O[C@@H]2O[C@H](C)[C@@H](O)[C@H](N(C)C)[C@H]2O)[C@@H](CCO)C[C@@H](C)C(=O)/C=C/C(C)=C/[C@@H]1CO[C@@H]1O[C@H](C)[C@@H](O)[C@@H](O)[C@H]1OC
4
